System: CAKI-1 renal
protocol_notes: NCI tumour cell line growth inhibition, 48 h
I'd be grateful if you could share measured log10 TGI for these entries.
The figures below represent log10 of TGI, where TGI is stated in µM.

compound: COc1cc2c3c(c4ccc(OC)c(OC)c4c2cc1OC)CN1CCC[C@@H]1C3
log10 TGI: 0.04
--
compound: Nc1ccccc1SC(CC(=O)c1ccccc1)c1ccc([N+](=O)[O-])cc1 (configuration not stated)
log10 TGI: 1.46
--
compound: Cc1c(-c2ccccc2)[nH]c2ccc(Cl)cc2c1=O
log10 TGI: 0.58
--
compound: O=C(/C=C/c1ccc(O)c(O)c1)OCc1ccccc1
log10 TGI: 1.83
--
compound: O=Nc1c(-c2c(O)[nH]c3ccccc23)[nH]c2ccccc12
log10 TGI: 1.61
--
compound: O=Nc1ccc(O)c2ccccc12
log10 TGI: 0.61
--
compound: CCOC(CCCNCCCn1c2c(c3cc(OC)c(OC)cc3c1=O)C(=O)c1cc3c(cc1-2)OCO3)OCC
log10 TGI: 0.88
--
compound: O=C(NO)c1ccc(OCc2cccc(Cl)c2)cc1
log10 TGI: 1.57

For the next question, use this compound.
-- ask What reported log10 TGI corresponds to `CCN(CC)CC.CCOc1ccc(NC(=O)N=C=[N-])cc1.[CH-]1CCCCC1.[CH-]1CCCCC1.[CH-]1CCCCC1.[Cl-].[Sn+4]` on CAKI-1 renal?
-- reply -1.01

Data origin, for the record: PubChem BioAssay (NCI)
